A collection of sequences and their measured apparent KD of MS2 coat protein
Tested on: MS2 coat protein
protocol: apparent KD of MS2 coat protein; designed switch direction (-1 OFF switch, 1 ON switch): -1; higher = weaker reporter binding
measurement.setup: input ligand: FMN 200 uM
State just the number; it will be interpreted in nM.

>>> measurement("AGCUGUGGCCAAGGAUAUCCAGCCUUAAAUACCGACGUAUAGUCGGACAUGAGGAUCACCCAUGUGGAGAAGGUGGUCUCAGCA [Eli eng2 - 040] (Eterna round: R96, puzzle: Exclusion NG 2)")
109
>>> measurement("CUUAAGUUAGGAUAUGCGCUACGGAAUCGUGGUUAUAGACAGCAGAAGGAACUUGAGGAUCACCCAAGUAAAUA [Inatsoce] (Eterna round: R97, puzzle: Exclusion 4)")
89.2
>>> measurement("CUGAUGUGAGGAUAUCUAAGGCGACCAUGAGACAUGGGCCAAGAGAAGGCACAUGAGGAUCACCCAUGUACCGA [Anertees] (Eterna round: R97, puzzle: Exclusion 4)")
83.8
>>> measurement("UAUUUAGCAAGCAGAUCCCACAUGAGGAUCACCCAUGUUCUCUGAACGUACAGAAUUACUGUACGAGCUCGUCUUAU [Winner reversed engineered 30] (Eterna round: R97, puzzle: Sensor, turn-off variant 1)")
352
>>> measurement("AAUUAGUAUGUGAGGAUAUUGACGUAAUGACUGGUUAAGAAGGCACAUGAGGAUCACCCAUGUGGGAAGUCACG [JR_BMEx4_Sub011] (Eterna round: R97, puzzle: Brourd's mod of Exclusion 4)")
56.8

Need apparent KD of MS2 coat protein, item AUAAUGUGAGGAUAUCAGUCGACUAGCUUCGGCUAGUCGACUGAGAAGGCACAUGAGGAUCACCCAUGUGUUUC [E4/15-A1] (Eterna round: R97, puzzle: Exclusion 4)
41.7
